IC50 overview
- Tested on: cultured human mast cells
- assay: Degranulation inhibition test using cultured human mast cells (IgE cross-linking, β-Hexosaminidase release)
- Type: cell-based
- test-settings: Mast cell; cultured human mast cells, anti-hIgE stimulation, β-Hexosaminidase index, average; read-out: human degranulation ave. IC50
Counter-ions that a name gives are not always drawn.

# annotated cases, reported IC50 shown
| compound | IC50 |
| --- | --- |
| Cc1ccnc(Nc2cccc(-c3cnc(CCCCC(=O)O)s3)n2)c1 | > 1000 nM |
| Cc1ccnc(Nc2cccc(-c3cnc(C(C)(C)CC(=O)O)s3)n2)c1 | > 1000 nM |
| Cc1ccnc(Nc2cccc(-c3cnc([C@@H](N)Cc4ccc(OCc5ccccc5)cc4)s3)n2)c1 | > 1000 nM |

Lookup: Request the reported IC50 associated with "Cc1ccnc(Nc2cccc(-c3cnc([C@@H](N)CO)s3)n2)c1"
Found: 100 to 1000 nM

Lookup: Request the reported IC50 associated with "Cc1ccnc(Nc2cccc(-c3cnc(CCc4cccc(CO)c4)s3)n2)c1"
Found: 100 to 1000 nM

Lookup: Request the reported IC50 associated with "COc1ccc(C[C@H](N)c2ncc(-c3cccc(Nc4cc(C)ccn4)n3)s2)cc1OC"
Found: > 1000 nM

Lookup: Request the reported IC50 associated with "C[C@H](O)c1ncc(-c2cccc(Nc3cc(C4(C)OCCO4)ccn3)n2)s1"
Found: 100 to 1000 nM

Lookup: Request the reported IC50 associated with Cc1ccnc(Nc2cccc(-c3cnc(C(=O)N4CCCC(O)C4)s3)n2)c1 (stereo not shown)
Found: 100 to 1000 nM

Lookup: Request the reported IC50 associated with "Cc1ccnc(Nc2cccc(-c3cnc([C@H](C)NC(=O)C(C)C)s3)n2)c1"
Found: 100 to 1000 nM

Lookup: Request the reported IC50 associated with "CC(=NO)c1ncc(-c2cccc(Nc3cc(C)ccn3)n2)s1"
Found: 100 to 1000 nM

Lookup: Request the reported IC50 associated with "Cc1ccnc(Nc2cccc(-c3cnc(C4CCN(C(=O)C5CCNCC5)CC4)s3)n2)c1"
Found: > 1000 nM

Lookup: Request the reported IC50 associated with Cc1ccnc(Nc2cccc(-c3cnc([C@H]4CC[C@H](C(=O)N5CCC(N)C5)CC4)s3)n2)c1 (stereo partly shown) [Compound A-311, trihydrochloride]
Found: 100 to 1000 nM

Lookup: Request the reported IC50 associated with "Cc1ccnc(Nc2cccc(-c3cnc([C@@H]4CCC(=O)N4C)s3)n2)c1"
Found: 100 to 1000 nM

Lookup: Request the reported IC50 associated with Cc1ccnc(Nc2cccc(-c3cnc([C@H]4CC[C@H](C(=O)N5CCC(N(C)C)C5)CC4)s3)n2)c1 (stereo partly shown)
Found: 100 to 1000 nM

Lookup: Request the reported IC50 associated with "Cc1ccnc(Nc2cccc(-c3cnc([C@H]4CC[C@H](C(=O)N[C@@H](CO)Cc5cnc[nH]5)CC4)s3)n2)c1"
Found: > 1000 nM

Lookup: Request the reported IC50 associated with "Cc1ccnc(Nc2cccc(-c3cnc(CCN)s3)n2)c1"
Found: 100 to 1000 nM

---

- Test system: cultured human mast cells
- assay: Degranulation inhibition test using cultured human mast cells (IgE cross-linking, β-Hexosaminidase release)
- Format: cell-based
- test-settings: Mast cell; cultured human mast cells, anti-hIgE stimulation, β-Hexosaminidase index, average; read-out: human degranulation ave. IC50
pIC50: −log10 of the molar value.
measurement-name: pIC50

# annotated cases, reported pIC50 shown
| compound | result |
| --- | --- |
| CC(=O)N[C@@H](C)c1ncc(-c2cccc(Nc3cc4ccccc4cn3)n2)s1 | 6.00 to 7.00 |
| Cc1ccnc(Nc2cccc(-c3cnc([C@H]4CC[C@H](C(=O)N5CC[C@H](O)[C@@H](O)C5)CC4)s3)n2)c1 | 6.00 to 7.00 |
| COC(=O)CCCc1ncc(-c2cccc(Nc3cc(C)ccn3)n2)s1 | < 6.00 |
| CC(=O)N[C@@H](C)c1nc(CO)c(-c2cccc(Nc3cc(C)ccn3)n2)s1 | < 6.00 |
| Cc1ccnc(Nc2cccc(-c3cnc(COC(=O)N4CCOCC4)s3)n2)c1 | 6.00 to 7.00 |

Lookup: Query the reported pIC50 for cultured human mast cells; item: "CC(=O)O[C@@H]1C[C@@H](c2ncc(-c3cccc(Nc4cc(C)ccn4)n3)s2)N(C(C)=O)C1"
Found: < 6.00

Lookup: Query the reported pIC50 for cultured human mast cells; item: "Cc1ccnc(Nc2cccc(-c3cnc(CCNC(=O)CO)s3)n2)c1"
Found: 6.00 to 7.00

Lookup: Query the reported pIC50 for cultured human mast cells; item: "Cc1ccnc(Nc2cccc(-c3cnc(N4CCC(C(=O)O)CC4)s3)n2)c1"
Found: < 6.00

Lookup: Query the reported pIC50 for cultured human mast cells; item: "CC(=O)Nc1ccc(CCc2ncc(-c3cccc(Nc4cc(C)ccn4)n3)s2)cc1"
Found: 6.00 to 7.00

Lookup: Query the reported pIC50 for cultured human mast cells; item: "Cc1ccnc(Nc2cccc(-c3cnc([C@@H](O)C(C)C)s3)n2)c1"
Found: 6.00 to 7.00

Lookup: Query the reported pIC50 for cultured human mast cells; item: "CC(=O)N[C@H](c1ccc(OCc2ccccc2)cc1)c1ncc(-c2cccc(Nc3cc(C)ccn3)n2)s1"
Found: < 6.00

Lookup: Query the reported pIC50 for cultured human mast cells; item: "CC(=O)NC(C)(C)c1ncc(-c2cccc(Nc3cc(C)ccn3)n2)s1"
Found: < 6.00

Lookup: Query the reported pIC50 for cultured human mast cells; item: Cc1ccnc(Nc2cccc(-c3cnc([C@H]4CC[C@H](CN5CCCC(O)C5)CC4)s3)n2)c1 (some centres unmarked)
Found: < 6.00

Lookup: Query the reported pIC50 for cultured human mast cells; item: "CC(=O)c1ncc(-c2cccc(Nc3cc(C)ccn3)n2)s1"
Found: 6.00 to 7.00

Lookup: Query the reported pIC50 for cultured human mast cells; item: "Cc1ccnc(Nc2cccc(-c3cnc([C@H]4CC[C@H](C(=O)N(CCO)CCO)CC4)s3)n2)c1"
Found: 6.00 to 7.00

Lookup: Query the reported pIC50 for cultured human mast cells; item: "CON(C)C(=O)c1ncc(-c2cccc(Nc3cc(C)ccn3)n2)s1"
Found: 6.00 to 7.00

Lookup: Query the reported pIC50 for cultured human mast cells; item: "Cc1ccnc(Nc2cccc(-c3cnc([C@H]4CC[C@H](C(=O)NN5CCC(O)CC5)CC4)s3)n2)c1"
Found: 6.00 to 7.00

Lookup: Query the reported pIC50 for cultured human mast cells; item: "COC(=O)CCN(Cc1ncc(-c2cccc(Nc3cc(C)ccn3)n2)s1)C(C)=O"
Found: < 6.00

Lookup: Query the reported pIC50 for cultured human mast cells; item: "Cc1ccnc(Nc2cccc(-c3cnc([C@H]4CC[C@H](c5noc(=O)[nH]5)CC4)s3)n2)c1"
Found: 6.00 to 7.00

Lookup: Query the reported pIC50 for cultured human mast cells; item: "Cc1ccnc(Nc2cccc(-c3cnc(C(=O)NC(CO)CO)s3)n2)c1"
Found: < 6.00

Lookup: Query the reported pIC50 for cultured human mast cells; item: "Cc1ccnc(Nc2cccc(-c3cnc([C@@H]4COC(C)(C)N4C(=O)OC(C)(C)C)s3)n2)c1"
Found: < 6.00

Lookup: Query the reported pIC50 for cultured human mast cells; item: "CC(=O)N[C@@H](C)c1nc(C(C)=O)c(-c2cccc(Nc3cc(C)ccn3)n2)s1"
Found: < 6.00

Lookup: Query the reported pIC50 for cultured human mast cells; item: "CC(=O)N[C@@H](Cc1ccc(NC(=O)OCc2ccccc2)cc1)c1ncc(-c2cccc(Nc3cc(C)ccn3)n2)s1"
Found: < 6.00

Lookup: Query the reported pIC50 for cultured human mast cells; item: "Cc1ccnc(Nc2cccc(-c3cnc(C(=O)NCCO)s3)n2)c1"
Found: 6.00 to 7.00

Lookup: Query the reported pIC50 for cultured human mast cells; item: "Cc1ccnc(Nc2cccc(-c3cnc([C@@H]4CCCC(=O)N4)s3)n2)c1"
Found: 6.00 to 7.00

Lookup: Query the reported pIC50 for cultured human mast cells; item: "Cc1ccnc(Nc2cccc(-c3cnc(C(=O)NC(C)(C)CO)s3)n2)c1"
Found: < 6.00

Lookup: Query the reported pIC50 for cultured human mast cells; item: "Cc1ccnc(Nc2cccc(-c3cnc(CCC4CCN(C(=O)C5CCC(=O)CC5)CC4)s3)n2)c1"
Found: < 6.00

Lookup: Query the reported pIC50 for cultured human mast cells; item: "Cc1ccnc(Nc2cccc(-c3cnc(CNC[C@H]4CC[C@H](C(=O)O)CC4)s3)n2)c1"
Found: < 6.00

Lookup: Query the reported pIC50 for cultured human mast cells; item: "Cc1ccnc(Nc2cccc(-c3cnc(CNC(=O)CC(=O)O)s3)n2)c1"
Found: < 6.00

Lookup: Query the reported pIC50 for cultured human mast cells; item: "Cc1ccnc(Nc2cccc(-c3cnc(CN4CCC(NS(C)(=O)=O)CC4)s3)n2)c1"
Found: 6.00 to 7.00

Lookup: Query the reported pIC50 for cultured human mast cells; item: "Cc1ccnc(Nc2cccc(-c3cnc(CCCCCNC(=O)OC(C)(C)C)s3)n2)c1"
Found: < 6.00

Lookup: Query the reported pIC50 for cultured human mast cells; item: "Cc1ccnc(Nc2cccc(-c3cnc(CC(=O)OC(C)(C)C)s3)n2)c1"
Found: < 6.00

This collection of values is drawn from patent US7803801B2.
